System: NCI-H522 lung
Test: NCI tumour cell line growth inhibition, 48 h

Compound	GI50
Cc1cc2c(-c3nc4ccccn4c3NC34CC5CC(CC(C5)C3)C4)c(O)c(O)cc2c(O)c1-c1c(C)cc2c(-c3nc4ccccn4c3NC34CC5CC(CC(C5)C3)C4)c(O)c(O)cc2c1O	0.613 µM
O=C1C2=C(Nc3cc([N+](=O)[O-])ccc3N2)OC1c1ccc(C2OC3=C(Nc4ccc([N+](=O)[O-])cc4N3)C2=O)cc1 (centres undefined)	6.12 µM
COc1ccc(CNC(=O)c2ccc(-c3cc(-c4nnc(C)o4)ccc3C)cc2)cc1	> 20.2 µM
CC(C)(C)OC(=O)n1c(Cl)c(C(=O)N=C=S)c2ccccc21	18.1 µM
